Reported pKd by item:
study.system: prostate specific antigen (PSA) (human, UniProt P07288 25-261)
Sequence (P07288 25-261): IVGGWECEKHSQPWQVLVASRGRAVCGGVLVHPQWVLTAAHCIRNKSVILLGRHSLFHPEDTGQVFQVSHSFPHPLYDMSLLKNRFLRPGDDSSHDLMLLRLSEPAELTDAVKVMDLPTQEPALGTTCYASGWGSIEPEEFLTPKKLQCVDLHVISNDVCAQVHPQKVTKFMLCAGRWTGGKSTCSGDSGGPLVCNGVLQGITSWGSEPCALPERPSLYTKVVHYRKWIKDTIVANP
experiment.summary: chronoamperometry; 5 mM MgCl2; RT (electrochemistry), pH 7.4; PSA-1, B4 and truncations: 1x PBS (10 mM phosphate, 154 mM NaCl); 24nt variants: 10 mM Tris-HCl, 150 mM NaCl, 5 mM KCl, 5 mM MgCl2; Gli1 series: 50 mM Tris-HCl, 250 mM NaCl, 5 mM MgCl2
applied.conditions: protein: native; label: 5' 6FAM; hairpin
pKd: −log10 of the molar value.
observation.type: pKd

                                     binder  observation_type  observed_result
0  TTTTTAATTAAAGCTCGCCATCAAATAGC (ssDNA) [5Ts-24nt]               pKd             6.34
1  TTTTTAATTAAAGCTCGCCATCAAATAGCTTT (ssDNA) [5Ts-24nt-3Ts (deltaPSap4#5)]               pKd             6.82
